Target: T1, human IL-23 (human, UniProt Q9NPF7 20-189; P29460 23-328)
T1 sequence (looked up) 1: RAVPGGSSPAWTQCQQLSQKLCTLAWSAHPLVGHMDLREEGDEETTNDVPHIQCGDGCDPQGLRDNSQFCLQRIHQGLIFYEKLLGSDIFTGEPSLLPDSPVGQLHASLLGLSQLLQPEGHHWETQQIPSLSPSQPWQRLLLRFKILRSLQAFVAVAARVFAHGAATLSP
T1 sequence (looked up) 2: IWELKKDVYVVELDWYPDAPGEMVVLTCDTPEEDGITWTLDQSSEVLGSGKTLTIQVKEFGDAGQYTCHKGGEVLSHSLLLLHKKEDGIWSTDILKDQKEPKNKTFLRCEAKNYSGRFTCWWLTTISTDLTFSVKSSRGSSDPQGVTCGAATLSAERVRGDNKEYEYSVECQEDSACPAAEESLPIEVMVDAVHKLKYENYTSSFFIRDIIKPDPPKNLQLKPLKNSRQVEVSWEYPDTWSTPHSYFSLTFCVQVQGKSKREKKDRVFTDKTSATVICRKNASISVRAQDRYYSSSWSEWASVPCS
Assay: cell-based or functional assay
Could you mark each record met if its Kit 225 pSTAT3 IC50 (nM) falls strictly under 3 nM, and not met if it equals or exceeds it?

Use these answered entries as a reference point.
1487C03 (designed binder, captured by anti-His mAb) MGVSDVPRDLEVVAATPTSLLISWGHYPLHIRYYRITYGETGGNSPVQEFTVPKQVYTATISGLKPGVDYTITVYAVTYYNEADYSQIPISINYRTEIDKPSQHHHHHH
not met
1491A05 (designed binder, captured by anti-His mAb) MGVSDVPRDLEVVAATPTSLLISWGHYPLHVRYYRITYGETGGNSPVQEFTVPSQVYTATISGLKPGVDYTITVYAVTYYAQENYKEIPISINYRTEIDKPSQHHHHHH
met
1437A09 (designed binder, captured by anti-His mAb) MGVSDVPRDLEVVAATPTSLLISWGHYPMHVRYYRITYGETGGNSPVQEFTVPSKQHTATISGLKPGVDYTITVYAVTYYNEADYSQIPISINYRTEIDKPSQHHHHHH
not met
1487D09 (designed binder, captured by anti-His mAb) MGVSDVPRDLEVVAATPTSLLISWGHYPMHIRYYRITYGETGGNSPVQEFTVPRSRHTATISGLKPGVDYTITVYAVTYYNEADYSQIPISINYRTEIDKPSQHHHHHH
met
1438E05 (designed binder) MGVSDVPRDLEVVAATPTSLLISWGHYPMHVRYYRITYGETGGNSPVQEFTVPSNVHTATISGLKPGVDYTITVYAVTYYNEADYSQIPISINYRTEIDKPSQHHHHHH
not met

Q: Field: below-cutoff. Rule: recorded Kit 225 pSTAT3 IC50 (nM) strictly less than 3 nM. Subject: 1571H03 (designed binder, captured by anti-His mAb) MGVSDVPRDLEVVAATPTSLLISWGHYPLHVRYYRITYGETGGNSPVQEFTVPNRVYTATISGLKPGVDYTITVYAVTYYAQEEYHIIPISINYRTEIDKPSQHHHHHH
A: met

Q: Given the entry 1550H05 (designed binder, captured by anti-His mAb) MGVSDVPRDLEVVAATPTSLLISWGHYPLHVRYYRITYGETGGNSPVQEFTVPRQIYTATISGLKPGVDYTITVYAVTYYNEADYSQIPISINYRTEIDKPSQHHHHHH , would its reported Kit 225 pSTAT3 IC50 (nM) be below 3 nM?
A: met

Q: Decide: Kit 225 pSTAT3 IC50 (nM) of 1490A07 (designed binder, captured by anti-His mAb) MGVSDVPRDLEVVAATPTSLLISWGHYPLHIRYYRITYGETGGNSPVQEFTVPHAKYTATISGLKPGVDYTITVYAVTYYAQENYKEIPISINYRTEIDKPSQHHHHHH strictly below 3 nM?
A: met

Q: Is 3 nM strictly greater than the binder's reported Kit 225 pSTAT3 IC50 (nM)? binder: 1550 E06 (designed binder, captured by anti-His mAb) MGVSDVPRDLEVVAATPTSLLISWGHYPMHVRYYRITYGETGGNSPVQEFTVPPPRHTATISGLKPGVDYTITVYAVTYYAQENYKEIPISINYRTEIDKPSQHHHHHH
A: met

Q: # strict comparison: is reported Kit 225 pSTAT3 IC50 (nM) < 3 nM? input = 1438A09 (designed binder) MGVSDVPRDLEVVAATPTSLLISWGHYPMHVRYYRITYGETGGNSPVQEFTVPRSRYTATISGLKPGVDYTITVYAVTYYNEADYSQIPISINYRTEIDKPSQHHHHHH
A: not met

Q: Given 1572H08 (designed binder, captured by anti-His mAb) MGVSDVPRDLEVVAATPTSLLISWGHYPLHVRYYRITYGETGGNSPVQEFTVPSRKYTATISGLKPGVDYTITVYAVTYYNEADYSQIPISINYRTEIDKPSQHHHHHH , is recorded Kit 225 pSTAT3 IC50 (nM) strictly lower than 3 nM?
A: met
